Test system: MDA-MB-468 breast
Measurement Description: NCI tumour cell line growth inhibition, 48 h
Consider the following compounds and their measured TGI readings.
Give your result in µM as a bare value.

Solved cases below.
| Compound | Target Entity | Assay Result |
| --- | --- | --- |
| Cn1cccc1C1CC(=O)N(CCC[Se]C#N)C1=O (centres undefined) | MDA-MB-468 breast | 9.29 |
| O=[N+]([O-])c1ccc([I+]c2ccccc2)cc1 | MDA-MB-468 breast | 4.13 |
| CC1OC(OC2C(OC3CCC4(C)C(CCC5(C)C4CC=C4C6CC(C)(C)CCC6(CO)C(O)CC45C)C3(C)C)OC(C(=O)O)C(OC3OC(COC4OC(CO)C(O)C(O)C4O)C(O)C(O)C3O)C2O)C(O)C(O)C1O (centres undefined) | MDA-MB-468 breast | 6.81 |
| CCN(CC)c1ccc(/C=C/C2=[N+](C)c3ccccc3C2(C)C)cc1 | MDA-MB-468 breast | 5.88 |
| COc1cc2nc(-c3ccc(Cl)cc3)cc(OCCCN3CCC(O)CC3)c2cc1OC | MDA-MB-468 breast | 4.04 |

Q: What measured TGI goes with O=C(/C=C/c1cccnc1)/C=C/c1cccnc1 ?
Ans: 2.22

Q: What measured TGI goes with O=S(=O)(Nc1ccc(-c2nc(-c3cccc(O)c3)c(-c3ccnc(Br)c3)[nH]2)cc1)c1ccccc1 ?
Ans: 5.47
